- System: Trypanosoma brucei rhodesiense
- assay-remarks: Antitrypanosomal activity against Trypanosoma brucei rhodesiense STIB900 trypomastigotes incubated for 70 hrs by resazurin dye based microplate fluorometer
- Format: functional, organism-based
- condition-description: STIB900, 70 h
Would you kindly list pEC50 for each of these compounds?
Answers are plain numbers, as −log10 of the molar value.

Example entries begin here.
Cc1nc(-c2ccc(N3CCN(C)CC3)cc2)cc(-c2ccccc2[N+](=O)[O-])n1	4.87
Cc1nc(-c2ccc(N3CCN(C)CC3)cc2)cc(-c2cccc(Br)c2)n1	5.80
CN1CCN(c2ccc(-c3cc(-c4ccccc4)ncn3)cc2)CC1	5.42

Look up pEC50 for the entries below, preserving their order.
1. CN1CCN(c2ccc(-c3cc(-c4ccccc4Cl)ncn3)cc2)CC1
2. Cc1nc(-c2ccc(N3CCN(C)CC3)cc2)cc(-c2ccc(Cl)cc2Cl)n1
3. Cc1nc(-c2ccccc2)cc(-c2ccc(N3CCN(C)CC3)cc2)n1
4. CN1CCN(c2ccc(-c3cc(-c4ccccc4)nc(N)n3)cc2)CC1
5. CN1CCN(c2ccc(-c3cc(-c4cccc(Cl)c4)ncn3)cc2)CC1
6. Cc1nc(-c2ccc(Cl)cc2)cc(-c2ccc(N3CCN(C)CC3)cc2)n1
7. CN1CCN(c2ccc(-c3cc(-c4cccc(Cl)c4)nc(N)n3)cc2)CC1

Resp:
[5.24, 5.00, 5.55, 5.44, 5.77, 6.22, 5.77]

Look up pEC50 for the entries below, preserving their order.
1. CN1CCN(c2ccc(-c3cc(-c4ccc(Br)cc4)ncn3)cc2)CC1
2. Cc1nc(-c2ccc(N3CCN(C)CC3)cc2)cc(-c2ccccc2Br)n1
3. CN1CCN(c2ccc(-c3cc(-c4ccc(Cl)cc4)ncn3)cc2)CC1
4. CN1CCN(c2ccc(-c3cc(-c4ccccc4Cl)nc(N)n3)cc2)CC1

Resp:
1: 6.22; 2: 5.37; 3: 6.30; 4: 4.69

###

- Tested on: Trypanosoma brucei rhodesiense
- assay-remarks: Antitrypanosomal activity against Trypanosoma brucei rhodesiense STIB900 trypomastigotes incubated for 70 hrs by resazurin dye based microplate fluorometer
- Assay type: functional, organism-based
- condition-description: STIB900, 70 h
quantity: pEC50
Answers are plain numbers, as −log10 of the molar value.

Example entries begin here.
CN1CCN(c2ccc(-c3cc(-c4ccccc4[N+](=O)[O-])nc(N)n3)cc2)CC1	4.85
Cc1nc(-c2ccc(Br)cc2)cc(-c2ccc(N3CCN(C)CC3)cc2)n1	6.05
CN1CCN(c2ccc(-c3cc(-c4ccccc4[N+](=O)[O-])ncn3)cc2)CC1	4.82

For CN1CCN(c2ccc(-c3cc(-c4ccccc4Br)nc(N)n3)cc2)CC1 the compound record lists pEC50 as 4.99
